Reference source for all entries: PubChem BioAssay (NCI)

System: OVCAR-8 ovarian
test details: NCI tumour cell line growth inhibition, 48 h; in the data active = GI50 below about 0.43 µM; inactive = the rest
Just give me one of these, please: active, inactive

Take a look at these entries with their results.
compound	label class
CC(=O)Oc1c(C(=O)[O-])cc(C(C)C)cc1C(C)C.CC(=O)Oc1c(C(=O)[O-])cc(C(C)C)cc1C(C)C.CC(=O)Oc1c(C(=O)[O-])cc(C(C)C)cc1C(C)C.CC(=O)Oc1c(C(=O)[O-])cc(C(C)C)cc1C(C)C.[Cu+2].[Cu+2]	inactive
CC(C)[C@@H]1CC[C@]2(CO2)[C@@H]2C(=O)OCC(C(=O)O)=C[C@H]21	active
COc1cc(C(=O)/C=C/c2cccc(Nc3ccnc4cc(Cl)ccc34)c2)cc(OC)c1OC	inactive

Prompt line: Assay outcome for CCSCC1CC(O)(c2ccccc2)C(c2ccccc2)C(c2ccc(F)cc2)O1 (stereo not drawn) : what was it?
Response line: inactive

Prompt line: Same thing, different compound: `COc1ccc(Nc2cnc3cc(N)cc(N)c3n2)cc1`
Response line: inactive

Prompt line: Same thing, different compound: Fc1ccc(NC(c2ccc(F)cc2)C2CCN(CCCCc3ccccc3)CC2)cc1 (stereo not drawn)
Response line: inactive

Prompt line: Same thing, different compound: `O=C1c2cc3c(cc2-c2c1c1ccc(Cl)cc1c(=O)n2C[C@H](O)CO)OCO3`
Response line: active

Prompt line: Same thing, different compound: `N#CC(C#N)=C/C=C(\Sc1ccc(Cl)cc1)c1ccc(F)cc1`
Response line: inactive
